target: human IL-13 (source not stated for the assay) (human, UniProt P35225 35-146, limits assumed); experiment: cell-based or functional assay
Sequence (P35225 35-146 limits assumed): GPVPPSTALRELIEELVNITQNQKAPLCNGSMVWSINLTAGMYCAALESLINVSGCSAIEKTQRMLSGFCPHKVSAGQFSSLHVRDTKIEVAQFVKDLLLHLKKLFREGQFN
OBSERVED_PROPERTY: IC50, IL-13 induced eotaxin release, n = 2 (nM)

BINDER	UNITS	OBSERVED_MEASUREMENT
mAb 602 (antibody, V domains shown) VH: EVQLVESGGGLVKPGGSLRLSCAASGFTFSNAWMSWVRQAPGKGLEWVGRIRSKIDGGTINYAAPVKGRFTISRDDSKNTLYLQMNSLKTEDTAVYYCATDQVGAYYGDYYGMDVWGQGTTVTVSS VL: SYELTQPPSVSVSPGQTARITCSGDALPEKYAYWYQQKSGQAPVLVIYEDTKRPSGIPERFSGSSSGTMATLTISGAQVEDEADYYCYSTDSSGNHGVFGGGTKLTVLG	nM	0.053
